Readings of inhibition of growth at 10 µM for the listed molecules
Test system: U-251
Experiment: Cytotoxicity against human U251 cells assessed as growth inhibition at 10 uM after 48 hrs by coulter counter analysis
Assay type: functional
Settings: U-251, 48 h, read-out: GI

Would you please look over these solved cases?
{"columns": ["structure-smiles-string", "measurement-name", "reported-measurement"],
 "data": [
  ["O=C(CSc1nc2ccccc2c(=O)n1CCc1ccccc1)NCc1ccccc1", "inhibition of growth at 10 µM", "24%"],
  ["NC(=O)CSc1nc2ccccc2c(=O)n1CCc1ccccc1", "inhibition of growth at 10 µM", "< 10%"],
  ["Cc1ccc(NC(=O)CSc2nc3ccccc3c(=O)n2CCc2ccccc2)cc1", "inhibition of growth at 10 µM", "11%"],
  ["COc1cc(OC(=O)CSc2nc3ccccc3c(=O)n2CCc2ccccc2)cc(OC)c1OC", "inhibition of growth at 10 µM", "26%"]
]}

Attention now turns to another entry.
Identify measured inhibition of growth at 10 µM associated with COc1ccc(NC(=O)CSc2nc3ccccc3c(=O)n2CCc2ccccc2)cc1
29%
